# Tested on: c-Src
# measurement-notes: phosphorylation enrichment, bacterial display (enrichment ratio); higher = better substrate or ligand; peptides without Tyr show the background
result-type: phosphorylation enrichment

[[record]]
primary_sequence = "LFLACYFIGGG [UBD_Y161_C162F]"
result_type = "phosphorylation enrichment"
result = 0.647

[[record]]
primary_sequence = "RLVTRYIFNRE [HLA-DQB1_Y62_Y58L_YF]"
result_type = "phosphorylation enrichment"
result = 0.462

[[record]]
primary_sequence = "WHHTFYNEPRV [ACTA1_Y93_L96P]"
result_type = "phosphorylation enrichment"
result = 0.508


Task item: Consider the sequence shown here: NSFKFYMSDDI [ATRX_Y204_C200S_YF] What is its recorded phosphorylation enrichment?
Reply: 0.574

Task item: Consider the sequence shown here: IYRAAYFGVYD [SLC25A4_Y191] What is its recorded phosphorylation enrichment?
Reply: 4.49

Task item: Consider the sequence shown here: KLLRLYAVVTR [LYN_Y306_V303L] What is its recorded phosphorylation enrichment?
Reply: 0.544

Task item: Consider the sequence shown here: KPPPSYESEEE [BRD4_Y599_T598S] What is its recorded phosphorylation enrichment?
Reply: 0.591

###

# target-or-test-system: Fyn (UniProt P06241)
# Sequence (P06241 whole entry, looked up): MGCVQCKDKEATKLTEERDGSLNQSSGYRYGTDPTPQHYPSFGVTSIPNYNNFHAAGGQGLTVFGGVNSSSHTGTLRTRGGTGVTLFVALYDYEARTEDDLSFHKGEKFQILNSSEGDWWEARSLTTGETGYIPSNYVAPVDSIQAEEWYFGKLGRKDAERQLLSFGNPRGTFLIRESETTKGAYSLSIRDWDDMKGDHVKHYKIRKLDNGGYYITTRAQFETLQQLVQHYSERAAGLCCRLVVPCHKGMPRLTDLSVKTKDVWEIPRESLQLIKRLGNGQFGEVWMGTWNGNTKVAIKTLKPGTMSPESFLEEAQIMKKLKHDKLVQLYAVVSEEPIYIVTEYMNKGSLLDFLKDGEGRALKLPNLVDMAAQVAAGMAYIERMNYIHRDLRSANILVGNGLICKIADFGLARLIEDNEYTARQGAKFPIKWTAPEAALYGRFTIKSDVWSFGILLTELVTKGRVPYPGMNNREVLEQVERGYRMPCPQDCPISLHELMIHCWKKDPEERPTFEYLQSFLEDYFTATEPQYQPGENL
# measurement-notes: phosphorylation enrichment, bacterial display (enrichment ratio); higher = better substrate or ligand; peptides without Tyr show the background
result-type: phosphorylation enrichment

Task item: Consider the sequence shown here: ASELGYVFQAI [UROD_Y133] What is its recorded phosphorylation enrichment?
Reply: 0.397

Task item: Consider the sequence shown here: CYCSWYRGWAP [TIMP3_Y195_G190C] What is its recorded phosphorylation enrichment?
Reply: 0.721

###

# target-or-test-system: c-Src SH2;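 also: peptide library displayed on the E. coli surface as eCPX fusions, selected cells deep-sequenced, score is each peptide's frequency after selection divided by its frequency in the input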
# measurement-notes: SH2 binding enrichment of the phosphorylated peptide, bacterial display (enrichment ratio); higher = better substrate or ligand; peptides without Tyr show the background
# binarize SH2 binding enrichment: threshold 0.6 inclusive, high side Criterion met, low side Criterion not met

Task item: Please check the record DAAEDYAEGVR [DHODH_Y194] and state if its SH2 binding enrichment is at or above 0.6.
Reply: Criterion met

Task item: Please check the record QPGTDYKIFLF [FN1_Y1970_YF] and state if its SH2 binding enrichment is at or above 0.6.
Reply: Criterion not met

Task item: Please check the record NLSVPYDSSLK [ABCC8_Y1353_R1352P] and state if its SH2 binding enrichment is at or above 0.6.
Reply: Criterion not met

Task item: Please check the record APSGNYVACGG [GNB1_Y111] and state if its SH2 binding enrichment is at or above 0.6.
Reply: Criterion met

Task item: Please check the record DTKAFYPEEIS [HSPA1A_Y115_E110D] and state if its SH2 binding enrichment is at or above 0.6.
Reply: Criterion not met

Task item: Please check the record KNKLNYTLPQD [NRAP_Y523] and state if its SH2 binding enrichment is at or above 0.6.
Reply: Criterion met

Task item: Please check the record CYCSWYRGWAP [TIMP3_Y195_G190C] and state if its SH2 binding enrichment is at or above 0.6.
Reply: Criterion met

Task item: Please check the record ESDFTYSSSFE [SRPK2_Y427_YF] and state if its SH2 binding enrichment is at or above 0.6.
Reply: Criterion not met

Task item: Please check the record AKKVFYMIETR [SHH_Y253_V254M] and state if its SH2 binding enrichment is at or above 0.6.
Reply: Criterion met
